target_desc: T1, human sodium-dependent phosphate transporter 2B (NaPi2b) (human, UniProt O95436 1-690)
T1 construct: UniProt ID is given as 095436 [sic]; also called hNaPi2b; Hu NaPi2b
T1 sequence: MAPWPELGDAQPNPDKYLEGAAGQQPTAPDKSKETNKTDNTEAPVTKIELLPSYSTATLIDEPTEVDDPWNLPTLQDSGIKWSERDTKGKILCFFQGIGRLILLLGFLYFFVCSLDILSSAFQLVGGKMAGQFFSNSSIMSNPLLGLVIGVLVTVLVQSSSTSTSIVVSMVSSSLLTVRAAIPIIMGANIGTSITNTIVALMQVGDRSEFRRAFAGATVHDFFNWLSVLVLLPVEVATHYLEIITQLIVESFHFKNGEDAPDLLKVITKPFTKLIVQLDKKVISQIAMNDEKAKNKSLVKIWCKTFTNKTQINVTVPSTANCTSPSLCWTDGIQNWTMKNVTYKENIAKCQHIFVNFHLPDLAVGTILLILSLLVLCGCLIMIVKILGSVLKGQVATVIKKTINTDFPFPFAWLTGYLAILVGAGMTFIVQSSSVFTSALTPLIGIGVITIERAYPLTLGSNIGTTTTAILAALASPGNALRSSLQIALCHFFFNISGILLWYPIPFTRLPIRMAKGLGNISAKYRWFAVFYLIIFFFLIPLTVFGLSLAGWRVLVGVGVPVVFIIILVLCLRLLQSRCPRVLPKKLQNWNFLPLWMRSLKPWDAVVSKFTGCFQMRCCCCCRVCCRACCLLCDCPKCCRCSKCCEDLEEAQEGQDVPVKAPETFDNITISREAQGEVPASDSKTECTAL
procedure_summary: flow cytometry, IGROV-1 cells (endogenous NaPi2b), 24 h at 4 °C; apparent Kd
Mark YES only when Kd stays strictly below 0.9 nM. Values equal to the cut-off are NO.

binder: v29459 humanized anti-NaPi2b antibody (H2L1) (antibody, human IgG1, kappa, V domains shown) VH: QVQLVQSGAEVKKPGASVKVSCKASGFTFTSYNVHWVRQAPGQGLEWIAAISPGNGDLSYAQKFQGRVTMTVDTSTSTVYMELSSLRSEDTAVYYCARGRTGMGAVDYWGQGTLVTVSS VL: DIQMTQSPSSLSASVGDRVTITCRASQDVYSYLNWYQQKPGKAPKLLIYYTSRLQSGVPSRFSGSGSGTDFTLTISSLQPEDFATYYCQQYNIFPWTFGQGTKLEIKR
classification: NO
--
binder: v29457 humanized anti-NaPi2b antibody (H4L1) (antibody, human IgG1, kappa, V domains shown) VH: QVQLVQSGAEVKKPGASVKMSCKASGFTFTSYNVHWVRQAPGQGLEWIAAISPGNGDLSYAQKFQGRATLTVDRSTSTAYMELSSLRSEDTAVYYCARGRTGMGAVDYWGQGTLVTVSS VL: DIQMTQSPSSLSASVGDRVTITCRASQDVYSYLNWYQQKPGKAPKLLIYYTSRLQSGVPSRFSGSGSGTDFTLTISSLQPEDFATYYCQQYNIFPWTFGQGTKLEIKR
classification: NO
--
binder: v29460 humanized anti-NaPi2b antibody (H1L1) (antibody, human IgG1, kappa, V domains shown) VH: QVQLVQSGAEVKKPGASVKVSCKASGFTFTSYNVHWVRQAPGQGLEWMGAISPGNGDLSYAQKFQGRVTMTRDTSTSTVYMELSSLRSEDTAVYYCARGRTGMGAVDYWGQGTLVTVSS VL: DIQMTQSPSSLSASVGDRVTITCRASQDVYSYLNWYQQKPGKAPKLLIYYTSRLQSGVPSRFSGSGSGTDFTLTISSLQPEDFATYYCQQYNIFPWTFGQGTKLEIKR
classification: NO
--
binder: v29449 humanized anti-NaPi2b antibody (H4L3) (antibody, human IgG1, kappa, V domains shown, Full-size IgG1/kappa) VH: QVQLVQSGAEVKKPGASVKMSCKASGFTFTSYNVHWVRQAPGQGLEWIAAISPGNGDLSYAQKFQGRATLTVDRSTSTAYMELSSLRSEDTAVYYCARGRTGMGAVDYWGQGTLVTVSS VL: DVQMTQSPSSLSASVGDRVTITCRASQDVYSYLNWYQQKPGKAVKLLIYYTSRLQSGVPSRFSGSGSGTDYTLTISSLQPEDIATYYCQQYNIFPWTFGQGTKLEIKR
classification: YES
--
binder: v29451 humanized anti-NaPi2b antibody (H2L3) (antibody, human IgG1, kappa, V domains shown) VH: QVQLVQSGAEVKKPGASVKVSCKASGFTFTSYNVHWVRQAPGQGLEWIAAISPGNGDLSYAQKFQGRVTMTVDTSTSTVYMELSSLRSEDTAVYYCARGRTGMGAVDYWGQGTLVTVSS VL: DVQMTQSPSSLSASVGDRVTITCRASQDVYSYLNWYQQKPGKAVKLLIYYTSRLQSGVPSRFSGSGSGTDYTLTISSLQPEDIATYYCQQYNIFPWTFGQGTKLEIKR
classification: NO
--
binder: v29455 humanized anti-NaPi2b antibody (H2L2) (antibody, human IgG1, kappa, V domains shown) VH: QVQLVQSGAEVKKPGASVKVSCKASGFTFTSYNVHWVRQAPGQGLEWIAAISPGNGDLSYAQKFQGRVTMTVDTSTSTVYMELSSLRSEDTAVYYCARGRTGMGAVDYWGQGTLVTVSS VL: DVQMTQSPSSLSASVGDRVTITCRASQDVYSYLNWYQQKPGKAVKLLIYYTSRLQSGVPSRFSGSGSGTDYTLTISSLQPEDFATYYCQQYNIFPWTFGQGTKLEIKR
classification: NO
--
binder: v29452 humanized anti-NaPi2b antibody (H1L3) (antibody, human IgG1, kappa, V domains shown) VH: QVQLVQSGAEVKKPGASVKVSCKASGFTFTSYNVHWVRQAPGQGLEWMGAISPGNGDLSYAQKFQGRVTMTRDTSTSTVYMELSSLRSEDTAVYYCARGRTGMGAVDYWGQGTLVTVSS VL: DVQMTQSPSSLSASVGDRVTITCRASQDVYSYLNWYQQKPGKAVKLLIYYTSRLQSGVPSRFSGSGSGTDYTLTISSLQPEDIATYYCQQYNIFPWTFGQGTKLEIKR
classification: NO
--
binder: v29450 humanized anti-NaPi2b antibody (H3L3) (antibody, human IgG1, kappa, V domains shown) VH: QVQLVQSGAEVKKPGASVKMSCKASGFTFTSYNVHWVRQAPGQGLEWIAAISPGNGDLSYAQKFQGRATLTVDTSTSTAYMELSSLRSEDTAVYYCARGRTGMGAVDYWGQGTLVTVSS VL: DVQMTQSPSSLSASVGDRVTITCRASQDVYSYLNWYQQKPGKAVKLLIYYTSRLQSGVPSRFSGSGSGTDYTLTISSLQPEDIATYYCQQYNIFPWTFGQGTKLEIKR
classification: NO
--
binder: v29453 humanized anti-NaPi2b antibody (H4L2) (antibody, human IgG1, kappa, V domains shown) VH: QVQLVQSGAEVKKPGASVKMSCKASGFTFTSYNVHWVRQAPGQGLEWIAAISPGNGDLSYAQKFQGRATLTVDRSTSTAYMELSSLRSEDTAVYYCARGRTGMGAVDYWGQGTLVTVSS VL: DVQMTQSPSSLSASVGDRVTITCRASQDVYSYLNWYQQKPGKAVKLLIYYTSRLQSGVPSRFSGSGSGTDYTLTISSLQPEDFATYYCQQYNIFPWTFGQGTKLEIKR
classification: YES
--
binder: v23855, parental mouse-human chimeric anti-NaPi2b IgG1/kappa antibody (antibody, V domains shown, Full-size antibody: mouse VH/VL appended to human IGHG1*01 CH1-hinge-CH2-CH3 (ends at G446) and IGKC*01; also called parental chimeric) VH: QAYLQQSGAELVRPGASVKMSCKASGFTFTSYNVHWVKQTPRQGLEWIAAISPGNGDLSYNQRFKDKATLTVDRSSSTAYMQLSGLTSEDSAVYFCARGRTGMGAVDYWGQGTSVTVSS VL: DVQMTQTASSLSASLGDRVTISCRASQDVYSYLNWYQQKPHGTVKLLIYYTSRLQSGVPSRFTGSGSGTDYSLTISNLEPEDIATYYCQQYNIFPWTFGGGTKLEIKR
classification: YES

These data points were gathered from patent US20250277030A1.
